Each recorded value in this set is attributed to paper PMC9343874.

# method_summary: Pharmacokinetic study in rats after oral administration of cinobufacini capsule (UPLC-MS/MS of plasma)
# Type: in vivo, rat
# assay_setup: male, Sprague-Dawley, in vivo; rat plasma, oral cinobufacini capsule 1.8 g/kg (medium), mean ± SD, n = 6; read-out: MRT0-∞
# Excerpt: Male Sprague–Dawley rats (weighing 200–220 g) of SPF grade were offered by Sippr/BK laboratory Animal, Corp., Ltd. (Shanghai, China) and fed in the Laboratory Animal Center of the Shanghai University of Traditional Chinese Medicine. […] An Agilent 1290 Infinity series UPLC system was combined with an Agilent 6460 series triple quadrupole mass spectrometer (Agilent Technologies, Santa Clara, CA, United States) to quantify all 13 analytes in an ESI-positive ionization mode. […]
experimental_readout: MRT inf
Include the unit right after the number.

Query: Quick check: MRT inf of C[C@]12CC[C@H](O)C[C@H]1CC[C@@H]1[C@@H]2CC[C@]2(C)[C@@H](c3ccc(=O)oc3)[C@@H](O)[C@H]3O[C@]132 ?
Response: 4.86 h

Query: Another: C[C@]12CC[C@H]3[C@@H](CC[C@]4(O)C[C@@H](O)CC[C@]34C=O)[C@@]1(O)CC[C@@H]2c1ccc(=O)oc1
Response: 2.55 h

Query: Another: C[C@]12CC[C@H](O)C[C@H]1CC[C@@H]1[C@@H]2[C@H](O)C(=O)[C@]2(C)[C@@H](c3ccc(=O)oc3)CC[C@]12O
Response: 1.74 h

Query: Another: C[C@]12CC[C@H](O)C[C@@]1(O)CC[C@@H]1[C@@H]2CC[C@]2(C)[C@@H](c3ccc(=O)oc3)CC[C@]12O
Response: 0.74 h

Query: Another: C[C@]12CC[C@H](O)C[C@H]1CC[C@@H]1[C@@H]2CC[C@]2(C)[C@@H](c3ccc(=O)oc3)CC[C@]12O
Response: 1.59 h
